target.system: Metabotropic glutamate receptor 8 (Rattus norvegicus)
assay.remarks: mGluR8 Gi/Go-coupled signaling modulation – cell-based, rat, thallium flux, HTS, primary screen (AID 488969)
test.context: HEK293 rat mGluR8, GIRK (G protein-gated inwardly rectifying potassium channel) thallium flux, FluoZin2; at 10 µM; stronger effect = higher value; submaximal glutamate (EC20) added with thallium
Whole data set: some 110,000 compounds, median “z-score” near -0.1, cut for the highest 2% near 2. Shown is part of a subset that was picked to be rich in the highest values.
I would appreciate it if you labelled entries true when z-score is 0.03 or higher, otherwise false.

Recorded results for 2 molecules are shown here.
>  <molecule>
O=C(CSc1nnnn1-c1ccccc1)N1CCCc2ccccc21

>  <target.system>
Metabotropic glutamate receptor 8 (Rattus norvegicus)

>  <category>
false

$$$$
>  <molecule>
COn1c(=O)c(=O)n(O)c2ccccc21

>  <target.system>
Metabotropic glutamate receptor 8 (Rattus norvegicus)

>  <category>
false

$$$$

Alright, here's another molecule for you.
Is reported z-score greater than or equal to 0.03 here: "COc1ccc(COC(=O)NNC(=O)c2ccccc2Cl)cc1"
true
